Where these numbers come from: patent US8058475B2

- tgt: UniProtKB P35372
- Sequence (P35372 whole entry): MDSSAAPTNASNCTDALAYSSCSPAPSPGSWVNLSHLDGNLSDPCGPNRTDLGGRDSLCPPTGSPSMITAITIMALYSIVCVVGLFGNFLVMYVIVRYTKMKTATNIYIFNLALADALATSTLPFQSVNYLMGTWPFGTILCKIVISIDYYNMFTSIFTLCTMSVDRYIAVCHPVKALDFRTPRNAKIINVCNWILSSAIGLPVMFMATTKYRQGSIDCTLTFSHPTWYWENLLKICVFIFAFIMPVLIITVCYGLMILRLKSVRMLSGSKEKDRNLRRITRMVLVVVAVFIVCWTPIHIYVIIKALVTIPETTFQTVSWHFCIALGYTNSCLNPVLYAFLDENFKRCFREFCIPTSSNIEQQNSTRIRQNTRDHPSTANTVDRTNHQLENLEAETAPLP
- test: Affinity for the human μ-opiate receptor ([3H]-naloxone displacement, SPA, CHO-K1 membrane preparation)
- Format: binding
- condition: read-out: μ-Opioid receptor, Ki
Counter-ions that a name gives are not always drawn.
Would you mind telling me the reported pKi of each entry?
Please express pKi as -log10 of the molar concentration.

Task: Quick check: pKi of CN(C)C(c1cccc(F)c1)C1CCC(CNC(=O)c2cc(Cl)cc(Cl)c2)CC1 (centres unmarked) ?
Output: 6.89

Task: Next record, please: CN(C)C(c1ccccc1)C1CCC(OCc2ccccc2)CC1 (centres unmarked) [compound 144, hydrochloride]
Output: 6.92

Task: Next record, please: Cc1cccc(C(=O)NCCC2CCC(C(c3ccc(F)cc3)N(C)C)CC2)c1 (centres unmarked)
Output: 7.26

Task: Next record, please: CN(C)C(c1ccccc1)C1CCC(CNC(=O)c2ccc(Cl)cc2Cl)CC1 (centres unmarked)
Output: 7.38

Task: Next record, please: CN(C)C(c1cccc(F)c1)C1CCC(NC(=O)c2ccc(F)c(Cl)c2)CC1 (centres unmarked)
Output: 7.33

Task: Next record, please: Cc1c(S(=O)(=O)c2ccc(Cl)cc2)csc1C(=O)NC1CCC(C(c2ccccc2)N(C)C)CC1 (centres unmarked) [compound 233]
Output: 7.15

Task: Next record, please: COc1cccc(C(=O)NCC2CCC(C(c3ccc(Cl)cc3)N(C)C)CC2)c1 (centres unmarked)
Output: 7.36

Task: Next record, please: CN(C)C(c1cccc(F)c1)C1CCC(CCNC(=O)c2cc(F)c(Cl)cc2Cl)CC1 (single isomer, unassigned) [compound 438]
Output: 7.00
